# measured-on: human Cyclin E/CDK2 (Homo sapiens)
# Construct: made in house; host or cells: insect cells
# assay-details: CDK2 FlashPlate Assay (inhibition of Rb phosphorylation)
# Type: biochemical
# stated-conditions: Concentration 0.5 μM; Cyclin E/CDK2, Rb-coated FlashPlates
inhibition at 0.5 µM: recorded values

- molecule: "COc1cc[nH]c1/C=C1\\C(=O)Nc2ccc3[nH]c(NCc4cccc5ccccc45)nc3c21 [WW]"
  inhibition at 0.5 µM: "< 50%"
- molecule: "COc1cc[nH]c1/C=C1\\C(=O)Nc2ccc3[nH]c(Nc4ccc5c(c4)CCC5)nc3c21 [YY]"
  inhibition at 0.5 µM: "< 50%"
- molecule: "COc1cc[nH]c1/C=C1\\C(=O)Nc2ccc3[nH]c(NCCN4CCCCC4)nc3c21 [NN]"
  inhibition at 0.5 µM: "> 50%"
- molecule: "COc1cc[nH]c1/C=C1\\C(=O)Nc2ccc3[nH]c(Nc4cccc(C(C)=O)c4)nc3c21 [BB]"
  inhibition at 0.5 µM: "< 50%"

###

# measured-on: human Cyclin E/CDK2 (Homo sapiens, UniProt P24941)
# Construct: made in house; host or cells: insect cells
# assay-details: CDK2 FlashPlate Assay (inhibition of Rb phosphorylation)
# Type: biochemical
# stated-conditions: Concentration 0.5 μM; Cyclin E/CDK2, Rb-coated FlashPlates
Recorded inhibition at 0.5 µM by entry

- molecule: "COc1cc[nH]c1/C=C1\\C(=O)Nc2ccc3[nH]c(NCCCCc4ccccc4)nc3c21 [JJ]"
  inhibition at 0.5 µM: "< 50%"
- molecule: "COc1cc[nH]c1/C=C1\\C(=O)Nc2ccc([N+](=O)[O-])c(N=[N+]=[N-])c21 [M]"
  inhibition at 0.5 µM: "> 50%"
- molecule: "COC(=O)c1ccc(Nc2nc3c4c(ccc3[nH]2)NC(=O)/C4=C\\c2[nH]ccc2OC)cc1 [EE]"
  inhibition at 0.5 µM: "< 50%"
- molecule: "COc1cc[nH]c1/C=C1\\C(=O)Nc2ccc3[nH]c(NCc4ccc(F)cc4)nc3c21 [FF]"
  inhibition at 0.5 µM: "> 50%"
- molecule: "COc1cc[nH]c1/C=C1\\C(=O)Nc2ccc3[nH]c(NCCCc4ccccc4)nc3c21 [XX]"
  inhibition at 0.5 µM: "< 50%"
- molecule: "COc1cc[nH]c1/C=C1\\C(=O)Nc2ccc3[nH]c(Nc4cccc5ccccc45)nc3c21 [MM]"
  inhibition at 0.5 µM: "> 50%"
- molecule: "COc1cc[nH]c1/C=C1\\C(=O)Nc2ccc3[nH]c(NCc4ccc5c(c4)OCO5)nc3c21 [VV]"
  inhibition at 0.5 µM: "< 50%"
- molecule: "COc1ccccc1Nc1nc2c3c(ccc2[nH]1)NC(=O)/C3=C\\c1[nH]ccc1OC [II]"
  inhibition at 0.5 µM: "< 50%"
- molecule: "COc1ccc(Nc2nc3c4c(ccc3[nH]2)NC(=O)/C4=C\\c2[nH]ccc2OC)cc1OC [Y]"
  inhibition at 0.5 µM: "< 50%"
